Consider the following binders; for each one, report its pKd.
# experimental-system: T1, Pig ICAM-2 extracellular region (UniProt ID Q6VY03; residues 24-250), C-terminally fused to His6 and Avi-tags (pig, UniProt Q6VY03 24-250, Possibly biotinylated on the Avi-tag, as for human ICAM-2 in Example 1; this is not stated for pig. The tag is not included in the letters.)
# T1 construct: also called pICAM-2
# T1 sequence: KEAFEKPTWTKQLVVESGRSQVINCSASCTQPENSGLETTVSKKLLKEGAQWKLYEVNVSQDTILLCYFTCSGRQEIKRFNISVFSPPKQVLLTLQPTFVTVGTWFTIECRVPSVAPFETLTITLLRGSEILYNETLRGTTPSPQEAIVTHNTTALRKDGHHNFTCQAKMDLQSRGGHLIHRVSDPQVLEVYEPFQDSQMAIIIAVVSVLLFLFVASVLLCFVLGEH
# procedure-text: BLI (Octet) of the monobody with pig ICAM-2
Answers are plain numbers, as −log10 of the molar value.

Recorded pKd, per entry:
Mb_pICAM2_L14 (designed binder, Identified by yeast display) VSSVPTKLEVVAATPTSLLISWDAGYWSSVSYYRITYGETGGNSPVQEFTVPGSSYTATISGLKPGVDYTITVYAQTSYYSWYSPISINYRT: 7.93
Mb_pICAM2_L6 (designed binder, Identified by yeast display) VSSVPTKLEVVAATPTSLLISWDAGYWSSVAYYRITYGETGGNSPVQEFTVPSSSSTATISGLKPGVDYTITVYAQTSMYSWYSPISINYRT: 7.85
Mb_pICAM2_L11 (designed binder, Identified by yeast display) VSSVPTKLEVVAATPTSLLISWDAGYWSSVAYYRITYGETGGNSPVQEFTVPSSSSTATISGLKPGVDYTITVYAMTSGYSWYSPISINYRT: 7.92
Mb_pICAM2_L22 (designed binder, Identified by yeast display) VSSVPTKLEVVAATPTSLLISWDAGYWSSVAYYRITYGETGGNSPVQEFTVPGSSYTATISGLKPGVDYTITVYAKTSDYSWYSPISINYRT: 7.77

# ---- query binder ----
The measured pKd associated with Mb_pICAM2_L1 (designed binder, Identified by yeast display) VSSVPTKLEVVAATPTSLLISWDAGYWSSVAYYRITYGETGGNSPVQEFTVPGSSSTATISGLKPGVDYTITVYAMTSGYSWYSPISINYRT reads 7.71
